Assay: Hemolytic activity in mouse erythrocytes assessed as hemolysis level at 15.6 ug/ml incubated for 1 hr at 37 degC
Type: ADME, cell-based, Erythrocyte
Settings: read-out: Activity
MEASURE: hemolysis at 1 h, 15.6 ug/ml (%)
Give your result in % as a bare value.

Query: So what's the measured hemolysis at 1 h, 15.6 ug/ml for this one? CCCCCCCCC(O)(Cn1cncn1)c1ccc(F)cc1F (stereo not given)
Result: 66.7

Query: So what's the measured hemolysis at 1 h, 15.6 ug/ml for this one? CCCCCCC(O)(Cn1cncn1)c1ccc(F)cc1F (stereo not given)
Result: 8.2

Query: So what's the measured hemolysis at 1 h, 15.6 ug/ml for this one? CCCCC(O)(Cn1cncn1)c1ccc(F)cc1F (stereo not given)
Result: 0

Query: So what's the measured hemolysis at 1 h, 15.6 ug/ml for this one? CCCCCCC(O)(Cn1cncn1)c1ccc(Cl)cc1 (stereo not given)
Result: 0

Query: So what's the measured hemolysis at 1 h, 15.6 ug/ml for this one? CCCCCCC(O)(Cn1cncn1)c1ccc(Cl)cc1Cl (stereo not given)
Result: 105

Query: So what's the measured hemolysis at 1 h, 15.6 ug/ml for this one? CCCCCC(O)(Cn1cncn1)c1ccc(Cl)cc1Cl (stereo not given)
Result: 0

Query: So what's the measured hemolysis at 1 h, 15.6 ug/ml for this one? C[C@@H]1[C@H](O)[C@@H](C)/C=C/C=C/C=C/C=C/C=C/C=C/C=C/[C@H](O[C@@H]2O[C@H](C)[C@@H](O)[C@H](N)[C@@H]2O)C[C@@H]2O[C@](O)(C[C@@H](O)C[C@@H](O)[C@H](O)CC[C@@H](O)C[C@@H](O)CC(=O)O[C@H]1C)C[C@H](O)[C@H]2C(=O)O [AMPHOTERICIN B]
Result: 32

Query: So what's the measured hemolysis at 1 h, 15.6 ug/ml for this one? OC(Cn1cncn1)(Cn1cncn1)c1ccc(F)cc1F [FLUCONAZOLE]
Result: 0

Query: So what's the measured hemolysis at 1 h, 15.6 ug/ml for this one? CCCCC(O)(Cn1cncn1)c1ccc(Cl)cc1Cl (stereo not given) [HEXACONAZOLE]
Result: 0

Query: So what's the measured hemolysis at 1 h, 15.6 ug/ml for this one? CCCCCC(O)(Cn1cncn1)c1ccccc1F (stereo not given)
Result: 0

Query: So what's the measured hemolysis at 1 h, 15.6 ug/ml for this one? CCCCCC(O)(Cn1cncn1)c1ccccc1Cl (stereo not given)
Result: 0

Query: So what's the measured hemolysis at 1 h, 15.6 ug/ml for this one? CCCCCCC(O)(Cn1cncn1)c1ccccc1F (stereo not given)
Result: 0

Query: So what's the measured hemolysis at 1 h, 15.6 ug/ml for this one? CCCCCCC(O)(Cn1cncn1)c1ccccc1Cl (stereo not given)
Result: 0

Query: So what's the measured hemolysis at 1 h, 15.6 ug/ml for this one? CCCCCCC(O)(Cn1cncn1)c1ccc(F)cc1 (stereo not given)
Result: 0

Query: So what's the measured hemolysis at 1 h, 15.6 ug/ml for this one? CCCCCC(O)(Cn1cncn1)c1ccc(F)cc1F (stereo not given)
Result: 0.9

* * *

Assay: Selectivity index, ratio of EC50 for toxicity in human BEAS2B cells to MIC50 for antifungal activity against Aspergillus nidulans ATCC 38163
Format: cell-based
Details: read-out: Selectivity Index
MEASURE: selectivity ratio

Query: So what's the measured selectivity ratio for this one? CC[C@@H]([C@H](C)O)n1ncn(-c2ccc(N3CCN(c4ccc(OC[C@@H]5CO[C@@](Cn6cncn6)(c6ccc(F)cc6F)C5)cc4)CC3)cc2)c1=O [POSACONAZOLE]
Result: 133
